# experimental-target: mTOR (Homo sapiens, UniProt P42345)
# Construct: FLAG; made in house
# Sequence (P42345 1362-2549): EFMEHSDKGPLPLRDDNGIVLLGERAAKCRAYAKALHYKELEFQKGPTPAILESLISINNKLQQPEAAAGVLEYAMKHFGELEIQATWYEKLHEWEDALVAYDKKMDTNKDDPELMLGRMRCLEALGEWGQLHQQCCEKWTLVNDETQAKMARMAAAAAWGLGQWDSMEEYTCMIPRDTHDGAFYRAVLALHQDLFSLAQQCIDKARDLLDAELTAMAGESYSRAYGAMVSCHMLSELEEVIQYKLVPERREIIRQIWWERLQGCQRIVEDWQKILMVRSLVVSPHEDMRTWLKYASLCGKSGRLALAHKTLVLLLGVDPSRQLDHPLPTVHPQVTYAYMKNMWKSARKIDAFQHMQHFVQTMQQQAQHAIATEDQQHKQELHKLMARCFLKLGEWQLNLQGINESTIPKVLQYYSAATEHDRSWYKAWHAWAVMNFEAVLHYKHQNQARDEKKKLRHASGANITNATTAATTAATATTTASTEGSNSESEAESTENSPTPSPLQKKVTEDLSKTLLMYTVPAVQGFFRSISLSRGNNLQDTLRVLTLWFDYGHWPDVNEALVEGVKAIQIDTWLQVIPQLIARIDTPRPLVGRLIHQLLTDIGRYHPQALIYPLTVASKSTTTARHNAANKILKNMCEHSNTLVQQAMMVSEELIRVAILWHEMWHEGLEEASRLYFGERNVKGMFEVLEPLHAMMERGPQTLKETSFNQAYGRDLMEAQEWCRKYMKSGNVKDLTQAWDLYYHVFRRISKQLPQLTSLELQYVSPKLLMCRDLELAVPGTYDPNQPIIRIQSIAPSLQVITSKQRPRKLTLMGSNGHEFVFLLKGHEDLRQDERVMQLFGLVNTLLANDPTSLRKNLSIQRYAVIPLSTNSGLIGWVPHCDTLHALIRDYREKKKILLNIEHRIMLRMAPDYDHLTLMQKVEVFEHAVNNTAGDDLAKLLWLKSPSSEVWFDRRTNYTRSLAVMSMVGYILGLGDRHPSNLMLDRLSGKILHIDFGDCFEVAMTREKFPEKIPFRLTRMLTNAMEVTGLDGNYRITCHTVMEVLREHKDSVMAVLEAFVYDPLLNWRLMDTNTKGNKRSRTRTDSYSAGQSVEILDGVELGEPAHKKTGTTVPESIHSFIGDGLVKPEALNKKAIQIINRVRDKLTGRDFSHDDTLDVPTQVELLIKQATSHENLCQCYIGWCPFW
# method: In Vitro mTOR Kinase Assay (Echo), Test (a)(ii)
# Format: biochemical
# conditions-used: read-out: mTOR Kinase Assay (Echo)
# From the text: (a)(ii) In Vitro mTOR Kinase Assay (Echo) The assay used AlphaScreen technology (Gray et al., Analytical Biochemistry, 2003, 313: 234-245) to determine the ability of test compounds to inhibit phosphorylation by recombinant mTOR. A C-terminal truncation of mTOR encompassing amino acid residues 1362 to 2549 of mTOR (EMBL Accession No. L34075) was stably expressed as a FLAG-tagged fusion in HEK293 cells as described by Vilella-Bach et al., Journal of Biochemistry, 1999, 274, 4266-4272. […]
I'd be grateful if you could share measured IC50 for these entries.
Could you give the number and then its unit, please?

Problem: Supply IC50 value. Item: `CC(C)NC(=O)Nc1ccc(-c2nc(N3CCOC[C@@H]3C)cc(C3(S(=O)(=O)C4CCCC4)CC3)n2)cc1`
Solution: 15.1 nM

Problem: Supply IC50 value. Item: `CCNC(=O)Nc1ccc(-c2nc(N3CCOC[C@@H]3C)cc(C3(S(=O)(=O)C4CCCC4)CC3)n2)cc1`
Solution: 1.87 nM

Problem: Supply IC50 value. Item: C[C@H]1COCCN1c1cc(C2(S(=O)(=O)c3ccccc3C(F)(F)F)CC2)nc(-c2ccc(NC(=O)NCCN(C)C)cc2)n1 [Example 10f]
Solution: 174 nM

Problem: Supply IC50 value. Item: `C[C@H]1COCCN1c1cc(C2(S(C)(=O)=O)CCC2)nc(-c2ccc(NC(=O)NCCCO)cc2)n1`
Solution: 0.239 nM
